biological target: Gastrin/cholecystokinin type B receptor (Homo sapiens); further: assay procedure not described here
Sequence (P32239 whole entry): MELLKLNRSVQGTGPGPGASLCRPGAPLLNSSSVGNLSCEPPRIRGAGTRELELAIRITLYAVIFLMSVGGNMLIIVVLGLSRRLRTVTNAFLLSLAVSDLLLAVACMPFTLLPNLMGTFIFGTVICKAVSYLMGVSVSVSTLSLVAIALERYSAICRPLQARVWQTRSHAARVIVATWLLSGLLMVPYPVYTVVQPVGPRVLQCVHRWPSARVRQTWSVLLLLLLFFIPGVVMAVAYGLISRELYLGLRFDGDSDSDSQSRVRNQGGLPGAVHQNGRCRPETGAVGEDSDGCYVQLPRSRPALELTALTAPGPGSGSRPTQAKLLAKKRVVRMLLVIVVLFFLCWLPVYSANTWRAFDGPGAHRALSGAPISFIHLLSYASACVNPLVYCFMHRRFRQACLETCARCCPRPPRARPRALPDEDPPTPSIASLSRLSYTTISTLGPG
observedProperty: AC50

Worked examples, 3 compounds total:
CC(C)C(=O)Nc1ccc([N+](=O)[O-])c(C(F)(F)F)c1 [FLUTAMIDE]
> 30 µM
C=C1C[C@@H]2[C@H](CC[C@]3(C)C(=O)CC[C@@H]23)[C@@]2(C)C=CC(=O)C=C12
> 30 µM
Cc1ccc(-c2nc3ccc(C)cn3c2CC(=O)N(C)C)cc1
> 30 µM

Next item in the queue.
## Input Form field: reported AC50 of COC(=O)C1=C(C)NC(C)=C(C(=O)OC(C)C)C1c1cccc2nonc12 (centres undefined)
## Output 34.1 µM

###

target: Neuropeptide Y receptor type 1 (Homo sapiens); further: assay procedure not described here
Sequence (P25929 whole entry): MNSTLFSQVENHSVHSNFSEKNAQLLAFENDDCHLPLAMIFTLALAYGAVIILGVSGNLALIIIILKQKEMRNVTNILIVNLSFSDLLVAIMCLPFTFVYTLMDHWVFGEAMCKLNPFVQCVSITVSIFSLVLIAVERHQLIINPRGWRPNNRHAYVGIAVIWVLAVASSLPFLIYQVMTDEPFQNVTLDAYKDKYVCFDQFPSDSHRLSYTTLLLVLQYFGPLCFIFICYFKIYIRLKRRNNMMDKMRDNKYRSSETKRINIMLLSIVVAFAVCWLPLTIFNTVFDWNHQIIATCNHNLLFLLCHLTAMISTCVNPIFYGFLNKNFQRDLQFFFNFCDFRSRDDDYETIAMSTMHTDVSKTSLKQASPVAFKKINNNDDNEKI
observedProperty: AC50

CN[C@@H]1[C@H](O)[C@H](NC)[C@H]2O[C@@]3(O)C(=O)C[C@@H](C)O[C@H]3O[C@@H]2[C@H]1O
> 10 µM
CCOc1cc(N)c([N+](=O)[O-])cc1C(=O)NC1CCN(CC2CC=CCC2)CC1 (stereo not drawn) [CINITAPRIDE]
> 30 µM

## Input Look up AC50: NC(CO)C(=O)NNCc1ccc(O)c(O)c1O (stereo not drawn) [BENSERAZIDE]
## Output 5.67 µM

###

target: Voltage-gated inwardly rectifying potassium channel KCNH2 (Homo sapiens); format: functional; details: read-out: AC50; further: assay procedure not described here
Sequence (Q12809 whole entry): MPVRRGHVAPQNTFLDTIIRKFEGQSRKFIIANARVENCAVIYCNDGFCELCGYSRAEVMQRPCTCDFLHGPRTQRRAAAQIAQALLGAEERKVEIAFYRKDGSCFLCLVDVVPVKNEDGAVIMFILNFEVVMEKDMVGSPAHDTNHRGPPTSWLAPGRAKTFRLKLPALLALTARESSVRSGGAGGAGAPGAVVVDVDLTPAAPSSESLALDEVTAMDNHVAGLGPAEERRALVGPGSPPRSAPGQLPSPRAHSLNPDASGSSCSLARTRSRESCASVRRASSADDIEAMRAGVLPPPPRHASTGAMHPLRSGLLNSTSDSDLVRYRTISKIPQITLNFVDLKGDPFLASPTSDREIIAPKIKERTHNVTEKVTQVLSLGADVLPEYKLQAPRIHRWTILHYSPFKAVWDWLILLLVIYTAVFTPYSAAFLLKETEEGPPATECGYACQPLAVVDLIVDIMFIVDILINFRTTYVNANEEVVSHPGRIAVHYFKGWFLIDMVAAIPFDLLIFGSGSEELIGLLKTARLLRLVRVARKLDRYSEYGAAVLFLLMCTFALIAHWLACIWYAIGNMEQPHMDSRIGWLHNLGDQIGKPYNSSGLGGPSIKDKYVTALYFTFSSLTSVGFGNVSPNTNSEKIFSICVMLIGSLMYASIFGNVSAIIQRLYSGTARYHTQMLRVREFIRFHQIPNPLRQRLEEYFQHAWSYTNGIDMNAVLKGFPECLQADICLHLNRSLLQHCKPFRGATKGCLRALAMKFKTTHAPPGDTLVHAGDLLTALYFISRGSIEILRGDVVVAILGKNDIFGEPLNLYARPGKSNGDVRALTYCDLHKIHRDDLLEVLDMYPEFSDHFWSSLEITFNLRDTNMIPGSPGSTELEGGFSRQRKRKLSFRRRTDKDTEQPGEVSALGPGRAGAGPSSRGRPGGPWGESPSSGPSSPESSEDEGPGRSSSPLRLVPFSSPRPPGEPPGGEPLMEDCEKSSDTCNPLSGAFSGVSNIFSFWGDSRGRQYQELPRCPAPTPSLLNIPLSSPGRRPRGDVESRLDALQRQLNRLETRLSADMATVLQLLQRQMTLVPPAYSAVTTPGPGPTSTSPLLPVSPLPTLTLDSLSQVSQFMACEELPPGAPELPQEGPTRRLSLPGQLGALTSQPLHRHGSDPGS
Some compounds, each annotated with its measured AC50.

CN1CCCN=C1COC(=O)C(O)(c1ccccc1)C1CCCCC1 (stereo not drawn)
3.77 µM

## Input Query for Voltage-gated inwardly rectifying potassium channel KCNH2 (Homo sapiens): what AC50 does the record show for COc1cc(NCc2ccc3nc(N)nc(N)c3c2C)cc(OC)c1OC [TRIMETREXATE] ?
## Output 2.16 µM

## Input Follow-up entry: O=C(Nc1ccccc1)OCC(CN1CCCCC1)OC(=O)Nc1ccccc1 (stereo not drawn)
## Output 5.4 µM

## Input Try this compound next: CC(O)CO (stereo not drawn)
## Output > 30 µM

## Input Record: CN1C(=O)CC(c2ccccc2)C1=O (stereo not drawn) [PHENSUXIMIDE]
## Output > 30 µM

## Input Input "CCCS(=O)(=O)Nc1ccc(F)c(C(=O)c2c[nH]c3ncc(-c4ccc(Cl)cc4)cc23)c1F"
## Output > 30 µM

## Input Please answer likewise for "NC[C@H]1O[C@H](O[C@H]2[C@H](O)[C@@H](O[C@H]3O[C@H](CO)[C@@H](O)[C@H](N)[C@H]3O)[C@H](N)C[C@@H]2N)[C@H](O)[C@@H](O)[C@@H]1O"
## Output > 30 µM

## Input For CC(=O)OC(C)C[N+](C)(C)C (stereo not drawn) then?
## Output > 30 µM

## Input Let us now turn to "O=C(O)Cc1cn(-c2ccccc2)nc1-c1ccc(Cl)cc1"
## Output > 30 µM

###

Measured AC50, listed per entry for reference.
biological target: Glutamate receptor ionotropic, NMDA 1 (Rattus norvegicus, UniProt P35439); further: assay procedure not described here

Reference set (2 entries):
NS(=O)(=O)c1cc2c(cc1Cl)NCNS2(=O)=O [HYDROCHLOROTHIAZIDE]
> 10 µM
N[C@@H](CSCC(=O)O)C(=O)O [CARBOCYSTEINE]
> 30 µM

# evaluate next
## Input GET /values?readout=AC50&item= Nc1ccc(/N=N/c2ccccc2)c(N)n1 [PHENAZOPYRIDINE]
## Output > 30 µM

Provenance of the data: ChEMBL document CHEMBL5291721
